From: the supplement of paper PMC3545927

- Study System: furin, P09958;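 also: purified furin at 1:10 enzyme:substrate in 50 mM HEPES pH 7.5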
- Sequence (P09958 whole entry): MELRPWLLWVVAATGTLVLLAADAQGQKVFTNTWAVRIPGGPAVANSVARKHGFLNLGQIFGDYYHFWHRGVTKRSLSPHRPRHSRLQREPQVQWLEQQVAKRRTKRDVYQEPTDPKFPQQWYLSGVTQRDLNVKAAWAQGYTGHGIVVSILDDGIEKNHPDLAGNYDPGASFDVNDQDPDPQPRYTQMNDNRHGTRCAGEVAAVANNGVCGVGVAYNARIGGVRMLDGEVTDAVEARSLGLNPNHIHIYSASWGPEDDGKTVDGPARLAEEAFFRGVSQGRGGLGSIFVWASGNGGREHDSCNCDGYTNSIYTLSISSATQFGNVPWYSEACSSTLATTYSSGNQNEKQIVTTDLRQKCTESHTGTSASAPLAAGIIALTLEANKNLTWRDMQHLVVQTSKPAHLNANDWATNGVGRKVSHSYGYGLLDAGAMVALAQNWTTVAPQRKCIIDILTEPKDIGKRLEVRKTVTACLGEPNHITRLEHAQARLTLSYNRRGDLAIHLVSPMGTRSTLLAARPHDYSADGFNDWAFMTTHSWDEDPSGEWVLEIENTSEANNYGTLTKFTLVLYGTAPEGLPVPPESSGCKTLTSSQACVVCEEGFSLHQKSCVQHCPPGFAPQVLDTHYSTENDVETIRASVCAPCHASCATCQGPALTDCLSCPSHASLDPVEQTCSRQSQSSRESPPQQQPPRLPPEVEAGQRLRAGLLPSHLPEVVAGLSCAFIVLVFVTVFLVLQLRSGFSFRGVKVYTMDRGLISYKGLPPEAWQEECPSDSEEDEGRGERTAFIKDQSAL
- Assay Procedure: furin cleavage Z-score vs untreated control; higher = more cleavage, active = 3.5 or more, inactive = 1 or less, 8 variable residues between constant flanks
- Condition Set: 30 min
Some of the results follow. The hit rate among all sequences tested is not known here.
I would appreciate it if you answered using one of these outcomes: active, inactive

Exercise: Give the logged outcome of this assay for the following sequence: CAEAMTRYSAAGNASASA [HC1541]
Key: inactive

Exercise: For this sequence, state the assay outcome: CAREKREKIKAGNASASA [FS-2208]
Key: inactive

Exercise: Could you kindly confirm the outcome this assay logged for CATTGCSGSWAGNASASA [HC1876] ?
Key: inactive

Exercise: Hi, do you know how CAREKRELRQAGNASASA [FS-2657] came out in this test?
Key: active

Exercise: Each sequence tested received a call. Report the one for CAFLLALLSCAGNASASA [HC249] .
Key: inactive

Exercise: Please state the recorded outcome for this sequence: CARHMRMTRSAGNASASA [FS-857]
Key: active

Exercise: So what was the verdict on CAEALRQKRAAGNASASA [FS-227] in this test?
Key: active
